Ki for Melatonin receptor type 1A (Homo sapiens) - collated from the literature.
metric name: Ki (nM)

Worked cases, answers included:
molecule smiles | Ki [nM]
CC(=O)N[C@@H]1CCN(c2cccc3c2CCO3)C1 | 202
COc1ccc2oc(-c3c(C)cccc3C)c(CCNC(C)=O)c2n1 | 120

[1] CC(=O)NCCCc1cccc2nc(CCCCc3ccccc3)oc12
[2] COc1cccc(O[C@H](C)CNC(=O)C2CC2)c1
### Prompt Pick one: 1 or 2 . Which one has the lower reported Ki? # respond with the chosen item's label
### Response 1

----------
Ki for UniProt:P48039 - collated from the literature.
metric name: Ki (nM)

Worked cases, answers included:
compound | target under test | Ki [nM]
CCCC(=O)NCCC1Cc2cccc3cccc1c23 (stereo not given) | UniProt:P48039 | 6.41
CCC(=O)NCCN(C)c1cccc(OCCCCCCNC(=O)Oc2cccc(-c3ccccc3)c2)c1 | UniProt:P48039 | 16.2
COc1ccc2oc(Cc3ccccc3OC)c(CCNC(C)=O)c2c1 | UniProt:P48039 | 14.3

[1] COc1cc2c(CCNC(C)=O)c[nH]c2cc1[N+](=O)[O-]
[2] CCC(=O)NCCCc1cc(OC)ccc1OCc1cccc(OC)c1
### Prompt Pick one: 1 or 2 . Which one has the lower reported Ki? # respond with the chosen item's label
### Response 1

[P] COc1cccc(/C(=C/CNC(=O)C2CCC2)c2ccccc2)c1
[Q] CCc1nc2cccc(CCCNC(C)=O)c2o1
### Prompt Pick one: P or Q . Which one has the lower reported Ki? # respond with the chosen item's label
### Response Q

[A] COc1ccc2cccc3c2c1CCC3CCNC(C)=O (stereo not given)
[B] COc1cccc(N(C)c2ccc(NC(=O)C(C)C)cc2)c1
### Prompt Pick one: A or B . Which one has the lower reported Ki? # respond with the chosen item's label
### Response A
(A: 8.9 nM, B: 106 nM)
